Molecular target: Recombinant human GR (Homo sapiens)
Construct: purchased Invitrogen P2816
Sequence (P04150 1-777): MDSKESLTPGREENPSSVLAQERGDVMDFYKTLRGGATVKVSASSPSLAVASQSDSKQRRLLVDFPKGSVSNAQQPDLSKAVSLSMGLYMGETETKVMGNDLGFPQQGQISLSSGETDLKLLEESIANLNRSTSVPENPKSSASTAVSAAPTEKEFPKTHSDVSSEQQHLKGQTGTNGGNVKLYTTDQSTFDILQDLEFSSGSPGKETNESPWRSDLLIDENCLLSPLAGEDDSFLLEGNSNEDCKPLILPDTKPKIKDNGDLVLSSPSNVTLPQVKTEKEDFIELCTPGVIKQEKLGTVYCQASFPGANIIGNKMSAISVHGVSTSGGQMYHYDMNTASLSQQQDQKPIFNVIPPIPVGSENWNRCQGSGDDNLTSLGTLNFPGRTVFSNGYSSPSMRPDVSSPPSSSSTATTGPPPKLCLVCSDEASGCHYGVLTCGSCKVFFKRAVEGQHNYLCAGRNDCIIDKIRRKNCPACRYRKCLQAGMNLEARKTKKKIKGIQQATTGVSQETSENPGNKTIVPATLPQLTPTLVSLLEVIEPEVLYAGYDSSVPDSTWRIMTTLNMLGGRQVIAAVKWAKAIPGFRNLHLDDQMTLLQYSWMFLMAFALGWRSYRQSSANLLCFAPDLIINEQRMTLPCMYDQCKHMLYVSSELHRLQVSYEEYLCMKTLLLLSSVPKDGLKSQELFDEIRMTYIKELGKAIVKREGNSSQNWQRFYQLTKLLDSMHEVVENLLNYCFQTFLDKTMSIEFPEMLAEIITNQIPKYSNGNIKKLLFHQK
Assay: GR competitor assay by fluorescence polarization (GR binding ratio)
Details: positive control 2 mM dexamethasone, a GR binding ratio of 100% or more is indicated by 100%
measured property: GR Binding ratio (%)

Can you share its GR Binding ratio (%)? I mean this compound: "COc1cc(F)ccc1-c1ccc2c(c1CNc1cc(C)ccc1C)C(C)=CC(C)(C)N2"
95%

# iterate: "COc1cc(O)ccc1-c1ccc2c(c1COc1cc(F)ccc1C)C(C)=CC(C)(C)N2"
≥ 100%

# iterate: "COc1ccc(F)cc1-c1ccc2c(c1COc1cc(Cl)ccc1C)C(C)=CC(C)(C)N2"
≥ 100%

# iterate: "COc1cc(F)ccc1-c1ccc2c(c1COC(=O)c1sccc1Cl)C(C)=CC(C)(C)N2"
≥ 100%

# iterate: "COc1cc(F)ccc1-c1ccc2c(c1COC(=O)c1ccc(Br)s1)C(C)=CC(C)(C)N2"
≥ 100%

---
Can you share its GR Binding ratio (%)? I mean this compound: "C=CCc1ccccc1OCc1c(-c2cc(F)ccc2OC)ccc2c1C(C)=CC(C)(C)N2"
≥ 100%

# iterate: "COc1cc(F)ccc1-c1ccc2c(c1COc1cc([N+](=O)[O-])ccc1C#N)C(C)=CC(C)(C)N2"
≥ 100%
